- assay system: T1, 4H967-AA
- T1 chain: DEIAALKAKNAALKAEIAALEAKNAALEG
- assay text: two-hybrid library CCmax;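 also: natural log of median RNA to DNA barcode read ratio; higher means stronger binding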
- condition label: mean of both orientations
result type: interaction score

# example entries with known answers
DEIAALKAEIAALEAKNAALEAKNAALKG [4H568-AA]
-0.838
DKIAALEAKNAALEAEIAALKAEIAALKG [4H2442-AA]
-2.2
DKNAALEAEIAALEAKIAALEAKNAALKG [4H3112-AA]
-1.38
DKNAALKAKNAALEAKIAALEAEIAALEG [4H4001-AA]
-1.57

A: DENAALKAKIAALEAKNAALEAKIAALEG [4H1845-AA]
B: DEIAALKAKNAALEAENAALEAKIAALKG [4H918-AA]
C: DEIAALKAENAALEAKIAALKAKNAALEG [4H687-AA]
Please list the entries, largest interaction score first. Give the labels in the order specified.
C, B, A

P: DEIAALKAKIAALKAKNAALEAENAALEG [4H883-AA]
Q: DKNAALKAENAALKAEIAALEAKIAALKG [4H3782-AA]
Out of P and Q , name the one with the higher interaction score. State the label of the item chosen.
Q
(Q: -1.19, P: -2.15)
